# System: Phytophthora infestans
# Format: in vivo
# reportedConditions: preventive spray on tomato seedlings; 100 = 100% disease control, 0 = no control; concentration not marked in table
Catalogue of compounds with associated Test D disease control rating (potato and tomato late blight)
reportedEndpoint: Test D disease control rating (potato and tomato late blight) (%)

> print(dat)
                                   compound  observedresult
1  O=C(NCc1ncc(C(F)(F)F)cc1Cl)c1c(Cl)cncc1Cl             100
2  Cc1cnc(Cl)c(C(=O)NCc2ncc(C(F)(F)F)cc2Cl)c1Cl             100
3  COc1cc(C(=O)NCc2ncc(C(F)(F)F)cc2Cl)cc(Cl)n1              31
4  CC(NC(=O)c1c(Cl)ccnc1Cl)c1ncc(C(F)(F)F)cc1Cl (racemic)             100
5  O=C(NCc1ncc(C(F)(F)F)cc1Cl)c1ccc(C(F)(F)F)nc1              25
6   O=C(NCc1ncc(C(F)(F)F)cc1Cl)c1cncc(Br)c1              16
7  CC(NC(=O)c1c(Cl)ccnc1Cl)c1ncc(Cl)cc1Cl (racemic)             100

###

# System: Plasmopara viticola
# assayInfo: TEST E: preventive spray on grape seedlings, grape downy mildew, disease rating
# Assay type: in vivo
# reportedConditions: 100 = 100% disease control, 0 = no control, concentration not marked in table
Under this convention, rule met denotes Test E disease control rating (grape downy mildew) strictly below 20% and rule not met denotes Test E disease control rating (grape downy mildew) at or above 20%.

> print(dat)
                                   compound          studysystem  assignedclass
1  O=C(NCc1ncc(C(F)(F)F)cc1Cl)c1cncc(Br)c1 [Cmpd 10]  Plasmopara viticola       rule met
2  Cc1cc(Cl)c(C(=O)NCc2ncc(C(F)(F)F)cc2Cl)c(Cl)n1 [Compound 8]  Plasmopara viticola   rule not met
3  CC(NC(=O)c1c(Cl)ccnc1Cl)c1ncc(Cl)cc1Cl (racemic) [Compound 36]  Plasmopara viticola   rule not met
4  Cc1nc(Cl)ccc1C(=O)NCc1ncc(C(F)(F)F)cc1Cl [Cmpd 25]  Plasmopara viticola       rule met
5  COc1ncccc1C(=O)NCc1ncc(C(F)(F)F)cc1Cl [Cmpd 12]  Plasmopara viticola   rule not met
6  O=C(NCc1ncc(C(F)(F)F)cc1Cl)c1c(Cl)cncc1Cl [Compound 35]  Plasmopara viticola   rule not met
7  Cc1ccc(C(=O)NCc2ncc(C(F)(F)F)cc2Cl)c(Cl)n1 [Cmpd 14]  Plasmopara viticola   rule not met
8  C[C@@H](NC(=O)c1c(Cl)ccnc1Cl)c1ncc(C(F)(F)F)cc1Cl [Compound 31]  Plasmopara viticola   rule not met
9  O=C(NCc1ncc(C(F)(F)F)cc1Cl)c1cccnc1O [Cmpd 11]  Plasmopara viticola       rule met
